- Species: Rattus norvegicus
- Procedure summary: Open TG-GATES - Regimen: Daily Repeat
- Assay type: toxicity, organism-based, Sprague-Dawley
- Parameters: regimen Daily Repeat, gender Male, age 6 weeks
- Applied conditions: in vivo, po, 0 mg/kg, […], tissue Plasma, route gavage, dose level Control, time 7 day
# GLC values compiled below
Answer format reminder: number followed by unit.

CCOC(=O)[C@H](CCc1ccccc1)N[C@@H](C)C(=O)N1CCC[C@H]1C(=O)O = 207 mg/dL
C1CCC(C(CC2CCCCN2)C2CCCCC2)CC1 (centres undefined) = 190.4 mg/dL
CC(=O)Nc1nnc(S(N)(=O)=O)s1 [ACETAZOLAMIDE] = 203 mg/dL
Clc1c(Cl)c(Cl)c(Cl)c(Cl)c1Cl = 193.6 mg/dL
CC(CN1c2ccccc2Sc2ccccc21)N(C)C (centres undefined) = 205.2 mg/dL
Cc1cccc(Nc2ccccc2C(=O)O)c1C = 229.4 mg/dL
CN(C)[C@@H]1C(O)=C(C(N)=O)C(=O)[C@@]2(O)C(O)=C3C(=O)c4c(O)cccc4[C@@](C)(O)[C@H]3C[C@@H]12 = 184.4 mg/dL
C#C[C@]1(O)CC[C@H]2[C@@H]3CCC4=Cc5oncc5C[C@]4(C)[C@H]3CC[C@@]21C = 202.8 mg/dL

Now look at this one.
Data request: Reported GLC for `CN1C(C(=O)Nc2ccccn2)=C(O)c2sc(Cl)cc2S1(=O)=O` : what is it?
Data returned: 206 mg/dL

----------
# Lym values compiled below
- Species on record: Rattus norvegicus
- Procedure summary: Open TG-GATES - Regimen: Single
- Assay type: toxicity, organism-based, Sprague-Dawley
- Set-up: regimen Single, gender Male, age 6 weeks
- Applied conditions: in vivo, po, 0 mg/kg, 3 h, tissue Blood, route gavage, dose level Control
All answers are understood in %, so give the number only.

C1CCC(C(CC2CCCCN2)C2CCCCC2)CC1 (centres undefined) = 80.6
CCOC(=O)[C@H](CCc1ccccc1)N[C@@H](C)C(=O)N1CCC[C@H]1C(=O)O = 78.2
CC(CN1c2ccccc2Sc2ccccc21)N(C)C (centres undefined) = 81.4
C#C[C@]1(O)CC[C@H]2[C@@H]3CCC4=Cc5oncc5C[C@]4(C)[C@H]3CC[C@@]21C = 77.2
Cc1cccc(Nc2ccccc2C(=O)O)c1C = 77.8

Data request: Reported Lym for `CN1C(C(=O)Nc2ccccn2)=C(O)c2sc(Cl)cc2S1(=O)=O` : what is it?
Data returned: 78.8

Data request: Reported Lym for `Clc1c(Cl)c(Cl)c(Cl)c(Cl)c1Cl` : what is it?
Data returned: 75.4

Data request: Reported Lym for COc1cc([C@@H]2c3cc4c(cc3[C@@H](O[C@@H]3O[C@@H]5CO[C@@H](C)O[C@H]5[C@H](O)[C@H]3O)[C@H]3COC(=O)[C@H]23)OCO4)cc(OC)c1O [ETOPOSIDE] : what is it?
Data returned: 74.8

Data request: Reported Lym for `CN(C)[C@@H]1C(O)=C(C(N)=O)C(=O)[C@@]2(O)C(O)=C3C(=O)c4c(O)cccc4[C@@](C)(O)[C@H]3C[C@@H]12` : what is it?
Data returned: 78.4

----------
- Species on record: Rattus norvegicus
- Procedure summary: Open TG-GATES - Regimen: Daily Repeat
- Assay type: toxicity, organism-based, Sprague-Dawley
- Design: regimen Daily Repeat, gender Male, age 6 weeks
- Applied conditions: in vivo, po, 0 mg/kg, […], tissue Plasma, route gavage, dose level Control, time 28 day
Value kind: CRE
Answer format reminder: number followed by unit.

Please review the entries below; each comes with its answer.
C1CCC(C(CC2CCCCN2)C2CCCCC2)CC1 (stereo not given) [PERHEXILINE] = 0.2 mg/dL
CC(CN1c2ccccc2Sc2ccccc21)N(C)C (stereo not given) [PROMETHAZINE] = 0.2 mg/dL

Data request: Reported CRE for `CCOC(=O)[C@H](CCc1ccccc1)N[C@@H](C)C(=O)N1CCC[C@H]1C(=O)O` : what is it?
Data returned: 0.7 mg/dL

Data request: Reported CRE for CN(C)[C@@H]1C(O)=C(C(N)=O)C(=O)[C@@]2(O)C(O)=C3C(=O)c4c(O)cccc4[C@@](C)(O)[C@H]3C[C@@H]12 [TETRACYCLINE] : what is it?
Data returned: 0.6 mg/dL

Data request: Reported CRE for CN1C(C(=O)Nc2ccccn2)=C(O)c2sc(Cl)cc2S1(=O)=O [LORNOXICAM] : what is it?
Data returned: 0.5 mg/dL

----------
- Organism: Rattus norvegicus
- Procedure summary: Open TG-GATES - Regimen: Single
- Type: toxicity, organism-based, Sprague-Dawley
- Parameters: regimen Single, gender Male, age 6 weeks
- Applied conditions: in vivo, po, 0 mg/kg, 24 h, tissue Blood, route gavage, dose level Control
# Ret values compiled below
Answer format reminder: number followed by unit.

Please review the entries below; each comes with its answer.
CN1C(C(=O)Nc2ccccn2)=C(O)c2sc(Cl)cc2S1(=O)=O [LORNOXICAM] = 6.8%
O=[N+]([O-])c1ccc2c(c1)Cc1ccccc1-2 [2-NITROFLUORENE] = 8.6%
CC(CN1c2ccccc2Sc2ccccc21)N(C)C (centres undefined) [PROMETHAZINE] = 7.2%

Now look at this one.
Data request: Reported Ret for CN(C)[C@@H]1C(O)=C(C(N)=O)C(=O)[C@@]2(O)C(O)=C3C(=O)c4c(O)cccc4[C@@](C)(O)[C@H]3C[C@@H]12 [TETRACYCLINE] : what is it?
Data returned: 9.8%

----------
- Organism: Rattus norvegicus
- Procedure summary: Open TG-GATES - Regimen: Single
- Assay type: toxicity, organism-based, Sprague-Dawley
- Design: regimen Single, gender Male, age 6 weeks
- Applied conditions: in vivo, po, 0 mg/kg, 9 h, tissue Plasma, route gavage, dose level Control
# Cl values compiled below
All answers are understood in meq/L, so give the number only.

CN(C)[C@@H]1C(O)=C(C(N)=O)C(=O)[C@@]2(O)C(O)=C3C(=O)c4c(O)cccc4[C@@](C)(O)[C@H]3C[C@@H]12 = 106.2
Clc1c(Cl)c(Cl)c(Cl)c(Cl)c1Cl = 103.6
CN1C(C(=O)Nc2ccccn2)=C(O)c2sc(Cl)cc2S1(=O)=O = 103.6

Data request: Reported Cl for COc1cc([C@@H]2c3cc4c(cc3[C@@H](O[C@@H]3O[C@@H]5CO[C@@H](C)O[C@H]5[C@H](O)[C@H]3O)[C@H]3COC(=O)[C@H]23)OCO4)cc(OC)c1O [ETOPOSIDE] : what is it?
Data returned: 107.6

----------
- Species on record: Rattus norvegicus
- Procedure summary: Open TG-GATES - Regimen: Single
- Type: toxicity, organism-based, Sprague-Dawley
- Set-up: regimen Single, gender Male, age 6 weeks
- Applied conditions: in vivo, po, 0 mg/kg, 3 h, tissue Blood, route gavage, dose level Control
# Ret values compiled below
Answer format reminder: number followed by unit.

Please review the entries below; each comes with its answer.
CN(C)[C@@H]1C(O)=C(C(N)=O)C(=O)[C@@]2(O)C(O)=C3C(=O)c4c(O)cccc4[C@@](C)(O)[C@H]3C[C@@H]12 = 11%
C1CCC(C(CC2CCCCN2)C2CCCCC2)CC1 (stereo not given) = 6.3%
CCOC(=O)[C@H](CCc1ccccc1)N[C@@H](C)C(=O)N1CCC[C@H]1C(=O)O = 9.2%
COc1cc([C@@H]2c3cc4c(cc3[C@@H](O[C@@H]3O[C@@H]5CO[C@@H](C)O[C@H]5[C@H](O)[C@H]3O)[C@H]3COC(=O)[C@H]23)OCO4)cc(OC)c1O [ETOPOSIDE] = 10.6%

Now look at this one.
Data request: Reported Ret for `Cc1cccc(Nc2ccccc2C(=O)O)c1C` : what is it?
Data returned: 7.4%

----------
- Organism: Rattus norvegicus
- Procedure summary: Open TG-GATES - Regimen: Daily Repeat
- Format: toxicity, organism-based, Sprague-Dawley
- Parameters: regimen Daily Repeat, gender Male, age 6 weeks
- Applied conditions: in vivo, po, 0 mg/kg, […], tissue Plasma, route gavage, dose level Control, time 7 day
Response key: satisfied means ALP >= 900 IU/L; not satisfied means ALP < 900 IU/L.

CC(=O)Nc1nnc(S(N)(=O)=O)s1 [ACETAZOLAMIDE] = satisfied

Data request: Identify whether the reported ALP of the following compound is 900 IU/L or greater: `CCOC(=O)[C@H](CCc1ccccc1)N[C@@H](C)C(=O)N1CCC[C@H]1C(=O)O`
Data returned: not satisfied

Data request: Identify whether the reported ALP of the following compound is 900 IU/L or greater: `CN(C)[C@@H]1C(O)=C(C(N)=O)C(=O)[C@@]2(O)C(O)=C3C(=O)c4c(O)cccc4[C@@](C)(O)[C@H]3C[C@@H]12`
Data returned: satisfied

Data origin, for the record: ChEMBL document CHEMBL3885861
